# experimental_system: Angiotensin II receptor (Homo sapiens, UniProt P30556+P50052)
# experiment_summary: Inhibitory activity against Angiotensin II receptor
# Type: protein assay
measured_property: IC50 (µM)
Numbers only, in µM.

>>> measured("CCCCc1nc(Cl)c(C=O)n1Cc1ccc2c(c1)C(Cc1nn[nH]n1)c1ccccc1-2 (centres undefined)")
5
>>> measured("CCCCc1nc(Sc2ccccc2)c(C=O)n1Cc1ccc2c(c1)C1c3ccccc3C2C(c2nn[nH]n2)C1c1nn[nH]n1 (centres undefined)")
0.46

Now for the molecule whose IC50 we want.
*Q* For the molecule CCCCc1nc(Cl)c(C=O)n1Cc1ccc2c(c1)C1c3ccccc3C2C(C(=O)O)C1C(=O)O (stereo in doubt; 5) , give its reported IC50.
*A* 0.22
